- protocol.notes: Solubility of the compound in 0.9% sodium chloride
- Format: physicochemical
parameter.measured: solubility (µg/mL)
Give the quantity in µg/mL, number only.

Ask: I'd like to know its solubility. The compound in question is `CC(=O)O.CC(C)C[C@H](NC(=O)[C@@H](Cc1c[nH]c2ccccc12)NC(=O)[C@H](Cc1ccc(O)cc1)NC(=O)[C@H](CO)NC(=O)[C@H](Cc1c[nH]c2ccccc12)NC(=O)[C@H](COCc1ccccc1)NC(=O)OC(C)(C)C)C(=O)N[C@@H](CCCNC(=N)N)C(=O)N1CCC[C@H]1C(=O)NCC(N)=O`
Reply: 16

---

- experimental.target: UniProtKB P30969
- Sequence (P30969 whole entry): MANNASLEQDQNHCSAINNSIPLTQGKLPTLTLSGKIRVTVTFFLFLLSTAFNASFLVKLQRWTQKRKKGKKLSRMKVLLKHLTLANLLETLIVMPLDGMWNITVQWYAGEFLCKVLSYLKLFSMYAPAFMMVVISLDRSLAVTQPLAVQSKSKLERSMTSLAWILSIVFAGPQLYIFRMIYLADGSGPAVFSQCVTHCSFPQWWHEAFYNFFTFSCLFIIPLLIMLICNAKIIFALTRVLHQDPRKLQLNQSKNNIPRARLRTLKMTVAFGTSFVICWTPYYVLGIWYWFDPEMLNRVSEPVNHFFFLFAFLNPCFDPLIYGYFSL
- protocol.notes: In vitro antagonist activity at GNRHR in CD rat anterior pituitary gland assessed as ratio of molar concentration of compound to LH-RH for inhibition of LH-RH-stimulated LH release after 4 hrs by radioimmunoassay
Peptide text beside a SMILES is read from it. * marks the point of attachment. Cbz = O=C(OCc1ccccc1)*; NHBn = c1ccc(CN*)cc1
Label y when ED50 is strictly below 80 molar ratio; otherwise label n.

Solved entries (count: 6):
Ask: State whether 80 molar ratio exceeds ED50 recorded for `CC(=O)O.CC(C)C[C@H](NC(=O)[C@@H](Cc1ccccc1)NC(=O)[C@H](Cc1ccc(O)cc1)NC(=O)[C@H](CO)NC(=O)[C@H](Cc1c[nH]c2ccccc12)NC(=O)[C@H](COCc1ccccc1)NC(=O)OCc1ccccc1)C(=O)N[C@@H](CCCNC(=N)N)C(=O)N1CCC[C@H]1C(=O)N(C)C` .
Reply: y

Ask: State whether 80 molar ratio exceeds ED50 recorded for `CC(=O)O.CCNC(=O)[C@@H]1CCCN1C(=O)[C@H](CCCNC(=N)N)NC(=O)[C@H](CC(C)C)NC(=O)[C@@H](CC(N)=O)NC(=O)[C@H](Cc1ccc(O)cc1)NC(=O)[C@H](CO)NC(=O)[C@H](Cc1c[nH]c2ccccc12)NC(=O)[C@H](CCC(N)=O)NC(=O)OCc1ccccc1` .
Reply: n

Ask: State whether 80 molar ratio exceeds ED50 recorded for `CC(C)C[C@H](NC(=O)[C@@H](Cc1c[nH]c2ccccc12)NC(=O)[C@H](Cc1ccc(O)cc1)NC(=O)[C@H](CO)NC(=O)[C@H](Cc1c[nH]c2ccccc12)NC(=O)[C@H](CCC(N)=O)NC(=O)OCc1ccccc1)C(=O)N[C@@H](CCCNC(=N)N)C(=O)N1CCC[C@H]1C(=O)NCC(N)=O.Cl` .
Reply: y

Ask: State whether 80 molar ratio exceeds ED50 recorded for `CCNC(=O)[C@@H]1CCCN1C(=O)[C@H](CCCNC(=N)N)NC(=O)[C@H](CC(C)C)NC(=O)[C@@H](Cc1ccccc1)NC(=O)[C@H](Cc1ccc(O)cc1)NC(=O)[C@H](CO)NC(=O)[C@H](Cc1c[nH]c2ccccc12)NC(=O)[C@H](COCc1ccccc1)NC(=O)OC(C)(C)C.Cl` .
Reply: y

Ask: State whether 80 molar ratio exceeds ED50 recorded for `CC(C)C[C@H](NC(=O)[C@@H](Cc1ccccc1)NC(=O)[C@H](Cc1ccc(O)cc1)NC(=O)[C@H](CO)NC(=O)[C@H](Cc1c[nH]c2ccccc12)NC(=O)[C@@H](Cc1ccccc1)NC(=O)[C@@H]1CCC(=O)N1)C(=O)N[C@@H](CCCNC(=N)N)C(=O)N1CCC[C@H]1C(=O)NCC(N)=O.Cl` .
Reply: y

Ask: State whether 80 molar ratio exceeds ED50 recorded for `CC(C)C[C@H](NC(=O)[C@@H](Cc1ccccc1)NC(=O)[C@H](Cc1ccc(O)cc1)NC(=O)[C@H](CO)NC(=O)[C@H](Cc1c[nH]c2ccccc12)NC(=O)[C@H](CCC(N)=O)NC(=O)OCc1ccccc1)C(=O)N[C@@H](CCCNC(=N)N)C(=O)N1CCC[C@H]1C(=O)NCC(N)=O` .
Reply: y

***
Ask: State whether 80 molar ratio exceeds ED50 recorded for CCNC(=O)[C@@H]1CCCN1C(=O)[C@H](CCCNC(=N)N)NC(=O)[C@H](CC(C)C)NC(=O)CNC(=O)[C@H](Cc1ccc(O)cc1)NC(=O)[C@H](CO)NC(=O)[C@H](Cc1c[nH]c2ccccc12)NC(=O)[C@H](CCC(=O)NCc1ccccc1)NC(=O)OCc1ccccc1.Cl (Cbz-E(NHBn)WSYGLRP-NHEt) .
Reply: n

---

- Tested on: Rattus norvegicus
- protocol.notes: Antiovulatory activity in CD rat assessed as blockade of ovulation at 1 mg, sc administered as six doses at 1200, 1230, 1300, 1350, 1400 and 1450 hrs during proestrus stage measured during estrus stage by dissecting microscopic analysis
- Type: functional
Peptide text beside a SMILES is read from it. * marks the point of attachment. Cbz = O=C(OCc1ccccc1)*; NHBn = c1ccc(CN*)cc1
Each entry below carries its reported inhibition (INH).
Give the quantity in %, number only.

Example entries begin here.
Ask: I'd like to know its inhibition (INH). The compound in question is `CC(=O)O.CC(C)C[C@H](NC(=O)[C@@H](Cc1ccccc1)NC(=O)[C@H](Cc1ccc(O)cc1)NC(=O)[C@H](CO)NC(=O)[C@H](Cc1c[nH]c2ccccc12)NC(=O)[C@H](CCC(N)=O)NC(=O)OCc1ccccc1)C(=O)N[C@@H](CCCNC(=N)N)C(=O)N1CCC[C@H]1C(=O)NCC(N)=O`
Reply: 20

Ask: I'd like to know its inhibition (INH). The compound in question is `CCNC(=O)[C@@H]1CCCN1C(=O)[C@H](CCCNC(=N)N)NC(=O)[C@H](CC(C)C)NC(=O)[C@@H](CCCNC(=N)N)NC(=O)[C@H](Cc1ccc(O)cc1)NC(=O)[C@H](CO)NC(=O)[C@H](Cc1c[nH]c2ccccc12)NC(=O)[C@H](CCC(N)=O)NC(=O)OCc1ccccc1.Cl`
Reply: 0

Ask: I'd like to know its inhibition (INH). The compound in question is `CC(=O)O.CCNC(=O)[C@@H]1CCCN1C(=O)[C@H](CCCNC(=N)N)NC(=O)[C@H](CC(C)C)NC(=O)[C@@H](Cc1ccc(OC)cc1)NC(=O)[C@H](Cc1ccc(O)cc1)NC(=O)[C@H](CO)NC(=O)[C@H](Cc1c[nH]c2ccccc12)NC(=O)[C@H](COCc1ccccc1)NC(=O)OCc1ccccc1`
Reply: 100

Ask: I'd like to know its inhibition (INH). The compound in question is CC(C)C[C@H](NC(=O)CNC(=O)[C@H](Cc1ccc(O)cc1)NC(=O)[C@H](CO)NC(=O)[C@H](Cc1c[nH]c2ccccc12)NC(=O)[C@H](CC(C)C)NC(=O)OCc1ccccc1)C(=O)N[C@@H](CCCNC(=N)N)C(=O)N1CCC[C@H]1C(=O)NCC(N)=O.Cl (HELM PEPTIDE1{[O=C(OCc1ccccc1)[*:2]].L.W.S.Y.G.L.R.P.G.[am]}$$$$V2.0)
Reply: 40

Ask: I'd like to know its inhibition (INH). The compound in question is `CCNC(=O)[C@@H]1CCCN1C(=O)[C@H](CCCNC(=N)N)NC(=O)[C@H](CC(C)C)NC(=O)[C@@H](Cc1ccccc1)NC(=O)[C@H](Cc1ccc(O)cc1)NC(=O)[C@H](CO)NC(=O)[C@H](Cc1c[nH]c2ccccc12)NC(=O)[C@H](CC(C)C)NC(=O)OCc1ccccc1.Cl`
Reply: 0

Ask: I'd like to know its inhibition (INH). The compound in question is CCNC(=O)[C@@H]1CCCN1C(=O)[C@H](CCCNC(=N)N)NC(=O)[C@H](CC(C)C)NC(=O)CNC(=O)[C@H](Cc1ccc(O)cc1)NC(=O)[C@H](CO)NC(=O)[C@H](Cc1c[nH]c2ccccc12)NC(=O)[C@H](CCC(=O)NCc1ccccc1)NC(=O)OCc1ccccc1.Cl (Cbz-E(NHBn)WSYGLRP-NHEt)
Reply: 20

Ask: I'd like to know its inhibition (INH). The compound in question is `CC(C)C[C@H](NC(=O)[C@@H](Cc1ccc(O)cc1)NC(=O)[C@H](Cc1ccc(O)cc1)NC(=O)[C@H](CO)NC(=O)[C@H](Cc1c[nH]c2ccccc12)NC(=O)[C@@H](Cc1ccccc1)NC(=O)OCc1ccccc1)C(=O)N[C@@H](CCCNC(=N)N)C(=O)N1CCC[C@H]1C(=O)NCC(N)=O.Cl`
Reply: 0

Ask: I'd like to know its inhibition (INH). The compound in question is `CC(C)C[C@H](NC(=O)CNC(=O)[C@H](Cc1ccc(O)cc1)NC(=O)[C@H](CO)NC(=O)[C@H](Cc1c[nH]c2ccccc12)NC(=O)[C@@H](Cc1ccccc1)NC(=O)OCc1ccccc1)C(=O)N[C@@H](CCCNC(=N)N)C(=O)N1CCC[C@H]1C(=O)NCC(N)=O.Cl`
Reply: 0

Ask: I'd like to know its inhibition (INH). The compound in question is `CCNC(=O)[C@@H]1CCCN1C(=O)[C@H](CCCNC(=N)N)NC(=O)[C@H](CC(C)C)NC(=O)CNC(=O)[C@H](Cc1ccc(O)cc1)NC(=O)[C@H](CO)NC(=O)[C@H](Cc1c[nH]c2ccccc12)NC(=O)[C@H](CC(C)C)NC(=O)OCc1ccccc1.Cl`
Reply: 20

Ask: I'd like to know its inhibition (INH). The compound in question is `CC(=O)O.CCNC(=O)[C@@H]1CCCN1C(=O)[C@H](CCCNC(=N)N)NC(=O)[C@H](CC(C)C)NC(=O)[C@@H](Cc1ccc(OC)cc1)NC(=O)[C@H](Cc1ccc(O)cc1)NC(=O)[C@H](CO)NC(=O)[C@H](Cc1c[nH]c2ccccc12)NC(=O)[C@H](COCc1ccccc1)NS(C)(=O)=O`
Reply: 0

***
Ask: I'd like to know its inhibition (INH). The compound in question is `CC(=O)O.CCNC(=O)[C@@H]1CCCN1C(=O)[C@H](CCCNC(=N)N)NC(=O)[C@H](CC(C)C)NC(=O)[C@@H](CCC(N)=O)NC(=O)[C@H](Cc1ccc(O)cc1)NC(=O)[C@H](CO)NC(=O)[C@H](Cc1c[nH]c2ccccc12)NC(=O)[C@H](CCC(N)=O)NC(=O)OCc1ccccc1`
Reply: 20

Ask: I'd like to know its inhibition (INH). The compound in question is CC[C@H](C)[C@H](NC(=O)OCc1ccccc1)C(=O)N[C@@H](Cc1c[nH]c2ccccc12)C(=O)N[C@@H](CO)C(=O)N[C@@H](Cc1ccc(O)cc1)C(=O)NCC(=O)N[C@@H](CC(C)C)C(=O)N[C@@H](CCCNC(=N)N)C(=O)N1CCC[C@H]1C(=O)NCC(N)=O.Cl (HELM PEPTIDE1{[O=C(OCc1ccccc1)[*:2]].I.W.S.Y.G.L.R.P.G.[am]}$$$$V2.0)
Reply: 20

Ask: I'd like to know its inhibition (INH). The compound in question is CC(C)C[C@H](NC(=O)CNC(=O)[C@H](Cc1ccc(O)cc1)NC(=O)[C@H](CO)NC(=O)[C@H](Cc1c[nH]c2ccccc12)NC(=O)[C@H](CCC(=O)NCc1ccccc1)NC(=O)OCc1ccccc1)C(=O)N[C@@H](CCCNC(=N)N)C(=O)N1CCC[C@H]1C(=O)NCC(N)=O.Cl (HELM PEPTIDE1{[O=C(OCc1ccccc1)[*:2]].E.W.S.Y.G.L.R.P.G.[am]}|CHEM1{[c1ccc(CN[*:1])cc1]}$PEPTIDE1,CHEM1,2:R3-1:R1$$$V2.0)
Reply: 40
